pIC50: −log10 of the molar value.
// merged dataset of pIC50 values, system = Tyrosine-protein kinase JAK3 (Homo sapiens), multiple refs

| smiles.data | pIC50 |
| --- | --- |
| Cc1nc2cnc(-n3cnc4ccc(F)cc43)nc2n1[C@@H]1CCOc2ccccc21 | > 7.00 |
| CCC(CC)n1cc(-c2nc(-c3cnn(C[C@@H](O)CN(C)C)c3)cn3nccc23)cn1 | 5.00 to 6.00 |

Simply: Cc1nn(CCC#N)cc1-c1nc(-c2cnn(C)c2)cc2nccn12 , Tyrosine-protein kinase JAK3 (Homo sapiens), pIC50 = < 6.00

Simply: CC(C)(O)Cc1nc2cc(Nc3ncc(Cl)c(NC4CCN(c5ccc(C#N)cn5)CC4)n3)ccn2n1 , Tyrosine-protein kinase JAK3 (Homo sapiens), pIC50 = 6.46

###

// merged dataset of IC50 values, system = Tyrosine-protein kinase JAK3 (Homo sapiens, UniProt P52333), multiple refs

# count of solved cases: 7
| molecule | measured.on | endpoint.result |
| --- | --- | --- |
| O=c1[nH]c2cnc(-c3cnn4cccnc34)cc2n1C1CCOCC1 | Tyrosine-protein kinase JAK3 (Homo sapiens, UniProt P52333) | 100 to 1000 nM |
| O=C(c1cccc(O)c1)c1c[nH]c2ncc(Br)cc12 | Tyrosine-protein kinase JAK3 (Homo sapiens, UniProt P52333) | ≤ 10000 nM |
| CCOC(=O)Cn1cc(Nc2ncc3ccn(CC4CCCC4)c3n2)cn1 | Tyrosine-protein kinase JAK3 (Homo sapiens, UniProt P52333) | < 100 nM |
| O=C(NCCC1CCCC1)c1noc2c1CN(c1ncnc3[nH]ccc13)CC2 | Tyrosine-protein kinase JAK3 (Homo sapiens, UniProt P52333) | < 100 nM |
| N#CCC1(n2cc(-c3nc(-c4cnn(C5COC5)c4)cc4nccn34)cn2)CN(CC(F)F)C1 | Tyrosine-protein kinase JAK3 (Homo sapiens, UniProt P52333) | > 1000 nM |
| Cc1ccnc(NC(=O)c2ccc(Oc3ccnc4[nH]nc(N[C@@H]5CCCN(C(=O)CCN(C)C)C5)c34)cc2)c1 | Tyrosine-protein kinase JAK3 (Homo sapiens, UniProt P52333) | > 10000 nM |
| CCC(CC)n1cc(-c2nc(-c3cnn(C[C@H](CN)OC)c3)cn3nccc23)cn1 (single isomer, unassigned) | Tyrosine-protein kinase JAK3 (Homo sapiens, UniProt P52333) | 1000 to 10000 nM |

Consider the record given below.
Simply: CCc1cc(O)c(F)cc1-c1cc2[nH]nc(C(=O)NC)c2c(N[C@@H](C)c2ccccc2N(C)S(C)(=O)=O)n1 , Tyrosine-protein kinase JAK3 (Homo sapiens, UniProt P52333), IC50 = 278 nM

###

// merged dataset of pIC50 values, system = Tyrosine-protein kinase JAK3 (Homo sapiens, UniProt P52333), multiple refs
pIC50: −log10 of the molar value.

| compound | measured.on | measured.attribute | endpoint.result |
| --- | --- | --- | --- |
| CCC(=O)c1cnc(Nc2ccc(CN(C)C)cn2)cc1Nc1cccc(-c2ncc(F)cn2)c1OC | Tyrosine-protein kinase JAK3 (Homo sapiens, UniProt P52333) | pIC50 | ≤ 6.30 |
| Cn1cc(-c2cc3nccn3c(-c3cnn(C4(CC#N)CCN(CC(F)(F)F)C4)c3)n2)cn1 (stereo not shown) | Tyrosine-protein kinase JAK3 (Homo sapiens, UniProt P52333) | pIC50 | 6.00 to 7.00 |
| C[C@@H]1CCCC[C@H]1n1cc(-c2nc(-c3cnn(C[C@@H](O)CO)c3)cn3nccc23)cn1 (single isomer, unassigned) | Tyrosine-protein kinase JAK3 (Homo sapiens, UniProt P52333) | pIC50 | 5.00 to 6.00 |
| C=CC(=O)Nc1cccc(Oc2c(Cl)cnc3[nH]c(-c4ccc(CN5CCCCC5)cc4)nc23)c1 | Tyrosine-protein kinase JAK3 (Homo sapiens, UniProt P52333) | pIC50 | ≥ 7.30 |
| O=c1[nH]c2c(NC3CNC3)nc(-n3cnc4ccc(F)cc43)nc2n1C1CCOCC1 | Tyrosine-protein kinase JAK3 (Homo sapiens, UniProt P52333) | pIC50 | > 7.00 |

pIC50 in this record for COc1cc(Nc2ncc3ccn(-c4cccc(NS(=O)(=O)C(C)(C)C)c4)c3n2)ccc1N1CCNCC1 : 6.95

pIC50 in this record for Cn1cc(-c2cc3nccn3c(-c3ccn(C4(CC#N)CN(C(=O)OC(C)(C)C)C4)n3)n2)cn1 : < 6.00

pIC50 in this record for Cn1cc(-c2cc3nccn3c(-c3cnn(C4(CC#N)CN(C(=O)C5(C(F)(F)F)CC5)C4)c3)n2)cn1 : 6.00 to 7.00

pIC50 in this record for Cn1cc(-c2cn3nccc3c(-c3cnn(C4CCCCCC4)c3)n2)cn1 : 5.00 to 6.00

pIC50 in this record for O=C(C#CCN1CCCCC1)N1CC2(CC(n3nc(-c4ccc(Oc5ccccc5)cc4)c4cncnc43)C2)C1 : < 6.30

pIC50 in this record for C=CC(=O)N1CC[C@@H]1Cn1nc(-c2ccc(Oc3ccccc3)cc2)c2cncnc21 : < 6.30

pIC50 in this record for N#Cc1ccc2ncn(-c3nc(-c4ccncc4)c4[nH]c(=O)n(C5CCOCC5)c4n3)c2c1 : > 7.00

pIC50 in this record for CCC(=O)N1CCC[C@@H](Nc2n[nH]c3nccc(Oc4ccc(-c5nc6cccc(C)c6o5)cc4)c23)C1 : < 5.00

pIC50 in this record for CC(C)CNc1nc(-c2cc(F)c(O)cc2CC(F)(F)F)nc2[nH]ncc12 : 6.68

pIC50 in this record for CC(=O)N1CCC[C@@H](Oc2n[nH]c3nccc(Nc4cccc(C(=O)Nc5ccc(C(C)C)c(C)c5)c4)c23)C1 : < 5.00

pIC50 in this record for CCNC(=O)c1ccc(Nc2nccc(-c3ccc(NC(=O)[C@@H]4CC4(F)F)cc3)n2)cc1C : 7.24

pIC50 in this record for Cn1cc(-c2cc3nccn3c(-c3cnn(C(CCO)c4ccc(F)cc4)c3)n2)cn1 (stereo not shown) : 6.00 to 7.00

pIC50 in this record for O=c1[nH]c2c(Cc3ccccc3)nc(-n3cnc4ccc(F)cc43)nc2n1[C@@H]1CCOc2c(F)cccc21 : 6.00 to 7.00

pIC50 in this record for O=C(NCCC(F)(F)F)c1nn(C2CCC2)c2c1CN(c1ncnc3[nH]ccc13)CC2 : > 7.00

pIC50 in this record for C[C@@H](Nc1c(C(N)=O)cnn2cc(-c3ccccc3)cc12)C(C)(C)C(N)=O : 8.89

pIC50 in this record for CN(c1ncnc2[nH]ccc12)[C@H]1C[C@@H](NS(=O)(=O)[C@H]2C[C@@H](CC#N)C2)C1 : < 5.00

pIC50 in this record for CC(C)(C)NS(=O)(=O)c1cccc(N2CCc3cnc(Nc4ccc(N5CCCCC5)cc4)nc32)c1 : 5.95

pIC50 in this record for C=CC(=O)Nc1cccc(Oc2nc(Nc3ccc(N4CCN(C5CCN(C)CC5)CC4)nc3)nc3ccsc23)c1 : 7.00 to 7.30

###

// merged dataset of IC50 values, system = Tyrosine-protein kinase JAK3 (Homo sapiens, UniProt P52333), multiple refs

| molecule | IC50 |
| --- | --- |
| O=C(Nc1cc(C(F)(F)F)ccn1)c1ccc(Oc2ccnc3[nH]nc(N[C@@H]4CCN(C(=O)C5CC5)C4)c23)cc1 | > 10000 nM |
| Cc1cnc2nc1NCCCCNC(=O)c1ccc(cc1F)-c1cnc(F)c(c1)N2 | 1000 to 10000 nM |
| C[C@]1(F)CCC[C@H]1Nc1c(C(N)=O)cnn2cc(N3CCOC3=O)cc12 | 6.8 nM |

Consider the record given below.
IC50 in this record for CN(c1ncnc2[nH]ccc12)N1CCC(C(=O)NCC(F)(F)F)C1 (single isomer, unassigned) : 10 to 100 nM

###

// merged dataset of IC50 values, system = Tyrosine-protein kinase JAK3 (Homo sapiens, UniProt P52333), multiple refs

# count of solved cases: 5
| molecule | IC50 |
| --- | --- |
| O=C(Nc1ccccn1)c1ccc(Oc2ccnc3[nH]nc(N[C@@H]4CCCN(C(=O)C5CC5)C4)c23)cc1 | > 10000 nM |
| CNC(=O)c1coc(-c2cnc3[nH]ccc3c2N[C@@H]2CCCN(C(=O)CC#N)C2)n1 | ≤ 10 nM |
| CN(c1ncnc2[nH]ccc12)[C@H]1CC[C@H](NC(=O)NCC(F)(F)F)CC1 | 42 nM |
| COCCN(C)C/C=C/C(=O)N1CC[C@@H](Nc2n[nH]c3nccc(Oc4ccc(Oc5ccccc5)cc4)c23)C1 | > 10000 nM |
| CCCN(c1ccccc1CNc1nc(-c2cc(F)c(O)cc2CC)cc2[nH]ncc12)S(C)(=O)=O | 3.3 nM |

Simply: CN(c1ncnc2[nH]ccc12)N1CCCC(C(=O)Nc2cccc(C(F)(F)F)c2)C1 (centres unmarked) , Tyrosine-protein kinase JAK3 (Homo sapiens, UniProt P52333), IC50 = 100 to 1000 nM

Simply: CN(C)C/C=C/C(=O)N1CCC(n2nc(-c3ccc(Oc4ccccc4)cc3)c3c(N)ncnc32)CC1 , Tyrosine-protein kinase JAK3 (Homo sapiens, UniProt P52333), IC50 = > 10000 nM

Simply: Cc1nc2cnc(-n3cnc4ccccc43)nc2n1C1CCOCC1 , Tyrosine-protein kinase JAK3 (Homo sapiens, UniProt P52333), IC50 = < 100 nM

Simply: N#Cc1ccc2ncn(-c3nc(N4CC(C(=O)O)C4)c4[nH]c(=O)n(C5CCOCC5)c4n3)c2c1 , Tyrosine-protein kinase JAK3 (Homo sapiens, UniProt P52333), IC50 = < 100 nM

Simply: CCC(=O)c1cnc(Nc2ccc(CN3CCOCC3)cn2)cc1Nc1cccc(-c2ncn(C)n2)c1OC , Tyrosine-protein kinase JAK3 (Homo sapiens, UniProt P52333), IC50 = ≥ 500 nM

Simply: Cc1nc2cnc(-n3cnc4ccc(F)cc43)nc2n1C1CCOCC1 , Tyrosine-protein kinase JAK3 (Homo sapiens, UniProt P52333), IC50 = < 100 nM

Simply: O=C(c1cc(F)ccc1F)c1c[nH]c2nccc(-c3cc(F)cc(F)c3)c12 , Tyrosine-protein kinase JAK3 (Homo sapiens, UniProt P52333), IC50 = ≤ 10000 nM

Simply: Fc1ccc2ncn(-c3ncc4nc(-c5ccncc5)n([C@@H]5CCOc6c(F)cccc65)c4n3)c2c1 , Tyrosine-protein kinase JAK3 (Homo sapiens, UniProt P52333), IC50 = < 100 nM

Simply: CC(=O)N1CCC[C@@H](Nc2n[nH]c3nccc(Nc4cccc(C(=O)Nc5ccc(C(C)C)c(C)c5)c4)c23)C1 , Tyrosine-protein kinase JAK3 (Homo sapiens, UniProt P52333), IC50 = > 10000 nM

Simply: Cn1cc(-c2cc3nccn3c(-c3cnn(C4(CC#N)CCN(C(=O)OC(C)(C)C)CC4)c3)n2)cn1 , Tyrosine-protein kinase JAK3 (Homo sapiens, UniProt P52333), IC50 = > 1000 nM

Simply: CC#Cc1ccc(C(=O)N2CC3(CC(N(C)c4ncnc5[nH]ccc45)C3)C2)cc1 , Tyrosine-protein kinase JAK3 (Homo sapiens, UniProt P52333), IC50 = 1000 to 10000 nM

Simply: CCCNc1nc(Nc2ccc3c(c2)NC[C@H](O)CO3)ncc1C(N)=O , Tyrosine-protein kinase JAK3 (Homo sapiens, UniProt P52333), IC50 = 10 to 100 nM
